Attribution: patent US20260374766A1

Biological target: p53 Y220C (Homo sapiens, UniProt P04637, Y220C)
Test: Luciferase Reporter Assay (Luc), p53 response element, NClH1299 cells with inducible p53 Y220C
Format: cell-based
Conditions: luciferase reporter, NClH1299 inducible p53 Y220C, 6 hour; 10 uM tool compound as positive control
Experimental: Luciferase Reporter Assay Protocol The cells were then used for p53 reporter assay. 5,000 cells were seeded in each well of 384 plate and cultured in 0.5 ug/mL doxycycline (D3072; Sigma) containing medium for 24 hours before compound treatment. […] The luciferase activity was immediately measured with PheraStar microplate reader.
Reported Emax by item:
property: Emax

smiles_code=COc1cc(C(=O)NC2CC2)ccc1NCC#Cc1nc2c(N[C@@H]3CCN(C)C[C@@H]3F)cccn2c1SC(F)(F)F endpoint_result="80 to 90%"
smiles_code=CNC(=O)c1ccc(NCC#Cc2nc3c(N[C@@H]4CCN(C)C[C@@H]4F)cccn3c2SC(F)F)c(OC)c1 endpoint_result="70 to 80%"
smiles_code=CCNC(=O)c1ccc(OC)c(NCC#Cc2nc3c(N[C@@H]4CCN(C)C[C@@H]4F)cccn3c2SC(F)(F)F)c1 endpoint_result="80 to 90%"
smiles_code=COc1cc(C(=O)NC(C)C)ccc1NCC#Cc1nc2c(N[C@@H]3CCN(C)C[C@@H]3F)cccn2c1CC(F)(F)F endpoint_result="70 to 80%"

====

Reported Kd by item:
Target: p53 Y220C mutant protein (amino acid residues 94-293) (Homo sapiens, UniProt P04637, Y220C)
Construct: p53 Y220C mutant protein (amino acid residues 94-293)
Assay: Surface Plasmon Resonance (SPR) assay, Kd_kinetic
Format: binding
Details: SPR; p53 Y220C; read-out: SPR P53 Y220C KD kinetic
property: Kd

compound=CNC(=O)c1ccc(OC)c(NCC#Cc2nc3c(N[C@@H]4CCN(C)C[C@@H]4F)cccn3c2SC(F)(F)F)c1F endpoint_result="10 to 100 nM"
compound=CNC(=O)c1cc(NCC#Cc2nn3c(N[C@@H]4CCN(C)C[C@@H]4F)cccc3c2SC(F)(F)F)c(OC)cn1 endpoint_result="< 10 nM"
compound="CNC(=O)c1cc(NCC#Cc2cc3c(N[C@H]4CCN(C)C[C@H]4F)cccn3c2SC(F)(F)F)c2nccn2c1 (stereo in doubt)" endpoint_result="< 10 nM"
compound=CNC(=O)c1ccc(NCC#Cc2nc3c(N[C@@H]4CCN(C)C[C@@H]4F)cccn3c2SC(F)(F)F)c(C)c1 endpoint_result="< 10 nM"
compound=O=C(NC[C@H]1COCCO1)c1ccc(NCC#Cc2cc3c(N[C@@H]4CCNC[C@@H]4F)cccn3c2SC(F)(F)F)cc1 endpoint_result="< 10 nM"
compound=O=C(NCC1COC1)c1ccc(NCC#Cc2cc3c(N[C@@H]4CCNC[C@@H]4F)cccn3c2SC(F)(F)F)cc1 endpoint_result="< 10 nM"
compound=COc1ccc(C(=O)N[C@H](C)[C@@H](C)O)cc1NCC#Cc1cc2c(N[C@@H]3CCN(C)C[C@@H]3F)cccn2c1SC(F)(F)F endpoint_result="< 10 nM"
compound=COc1cc([S@@+](C)[O-])ccc1NCC#Cc1cc2c(N[C@@H]3CCN(C)C[C@@H]3F)cccn2c1SC(F)(F)F endpoint_result="< 10 nM"
compound=COc1ccc(C(=O)N[C@H](C)[C@H](C)O)cc1NCC#Cc1cc2c(N[C@@H]3CCN(C)C[C@@H]3F)cccn2c1SC(F)(F)F endpoint_result="< 10 nM"
compound=CNC(=O)c1ccc(OC)c(NCC#Cc2nn3c(N[C@@H]4CCNC[C@@H]4F)cccc3c2SC(F)(F)F)c1 endpoint_result="< 10 nM"
compound=C[C@H](O)CNC(=O)c1ccc(NCC#Cc2cc3c(N[C@@H]4CCNC[C@@H]4F)cccn3c2SC(F)(F)F)cc1 endpoint_result="< 10 nM"
compound=CN1CC[C@@H](Nc2cccn3c(SC(F)(F)F)c(-c4noc(CNC(=O)C5CC5)n4)nc23)[C@@H](F)C1 endpoint_result="10 to 100 nM"
compound=CNC(=O)c1ccc(OC)c(NCC#Cc2nn3c(N[C@@H]4CCNC[C@@H]4F)cccc3c2SC(F)(F)F)n1 endpoint_result="< 10 nM"
